Reported zone of inhibition at 2500 µg/mL by item:
# System: Bacillus subtilis
# assay method text: Antimicrobial activity against Bacillus subtilis RCMB 101001 at 2.5 mg/ml by agar diffusion technique
# Format: functional
# experimental parameters: read-out: DIZ
The answer is to be given in mm; state only the numeric part.

1. S=c1[nH]nc(-c2cccnc2)n1/N=C\c1ccccc1OCCCOc1ccccc1/C=N\n1c(-c2cccnc2)n[nH]c1=S: 1
2. OC1COc2ccccc2/C=N\n2c(nnc2-c2cccnc2)SCCCSc2nnc(-c3cccnc3)n2/N=C\c2ccccc2OC1: 1
3. Nn1c(SCCCCSc2nnc(-c3cccnc3)n2N)nnc1-c1cccnc1: 1
4. Nn1c(-c2cccnc2)n[nH]c1=S: 0
5. OC(COc1ccccc1/C=N\n1c(-c2cccnc2)n[nH]c1=S)COc1ccccc1/C=N\n1c(-c2cccnc2)n[nH]c1=S: 1

Q: What measured zone of inhibition at 2500 µg/mL goes with OC1COc2ccccc2/C=N\n2c(nnc2-c2cccnc2)SCCCCSc2nnc(-c3cccnc3)n2/N=C\c2ccccc2OC1 ?
Ans: 1

Q: Name the reported zone of inhibition at 2500 µg/mL value associated with the compound Oc1ccccc1/C=N\n1c(SCCSc2nnc(-c3cccnc3)n2/N=C\c2ccccc2O)nnc1-c1cccnc1
Ans: 0

Q: Quick one: zone of inhibition at 2500 µg/mL of CN(C/C=C/C#CC(C)(C)C)Cc1cccc2ccccc12 ?
Ans: 10

Q: # zone of inhibition at 2500 µg/mL lookup, item Nn1c(SCCCSc2nnc(-c3cccnc3)n2N)nnc1-c1cccnc1
Ans: 0

Q: # input compound: S=c1[nH]nc(-c2cccnc2)n1/N=C\c1ccccc1OCCOCCOCCOc1ccccc1/C=N\n1c(-c2cccnc2)n[nH]c1=S ; wanted: its zone of inhibition at 2500 µg/mL
Ans: 0

Q: Suppose we examine the compound OC1COc2ccccc2CNn2c(nnc2-c2cccnc2)SCCCSc2nnc(-c3cccnc3)n2NCc2ccccc2OC1 ; what zone of inhibition at 2500 µg/mL value has been reported?
Ans: 6

Q: What value of zone of inhibition at 2500 µg/mL has been recorded for this entry: Nn1c(SCCSc2nnc(-c3cccnc3)n2N)nnc1-c1cccnc1
Ans: 0

Q: If you can, please state the reported zone of inhibition at 2500 µg/mL value of S=c1[nH]nc(-c2cccnc2)n1/N=C\c1ccccc1OCCCCOc1ccccc1/C=N\n1c(-c2cccnc2)n[nH]c1=S .
Ans: 0

Q: Value lookup for zone of inhibition at 2500 µg/mL; key = C1=N\n2c(nnc2-c2cccnc2)SCCCCSc2nnc(-c3cccnc3)n2/N=C\c2ccccc2OCCCCOc2ccccc2/1
Ans: 0

Q: Entry under review: S=c1[nH]nc(-c2cccnc2)n1/N=C\c1ccccc1OCCOCCOc1ccccc1/C=N\n1c(-c2cccnc2)n[nH]c1=S . Reported zone of inhibition at 2500 µg/mL?
Ans: 1

Q: Requested read-out: zone of inhibition at 2500 µg/mL. Entry: O=C(N[C@H](CO)[C@H](O)c1ccc([N+](=O)[O-])cc1)C(Cl)Cl
Ans: 10

Q: Item C1=N\n2c(nnc2-c2cccnc2)SCCCCSc2nnc(-c3cccnc3)n2/N=C\c2ccccc2OCCOCCOCCOc2ccccc2/1 has what recorded zone of inhibition at 2500 µg/mL?
Ans: 0
